Entries and their measured inhibition at 0.0003 µM follow.
measured-on: EGFR (L858R/T790M/C797S) (Homo sapiens, UniProt P00533, C797S/L858R/T790M)
Sequence (P00533 25-1210 T790M/C797S/L858R): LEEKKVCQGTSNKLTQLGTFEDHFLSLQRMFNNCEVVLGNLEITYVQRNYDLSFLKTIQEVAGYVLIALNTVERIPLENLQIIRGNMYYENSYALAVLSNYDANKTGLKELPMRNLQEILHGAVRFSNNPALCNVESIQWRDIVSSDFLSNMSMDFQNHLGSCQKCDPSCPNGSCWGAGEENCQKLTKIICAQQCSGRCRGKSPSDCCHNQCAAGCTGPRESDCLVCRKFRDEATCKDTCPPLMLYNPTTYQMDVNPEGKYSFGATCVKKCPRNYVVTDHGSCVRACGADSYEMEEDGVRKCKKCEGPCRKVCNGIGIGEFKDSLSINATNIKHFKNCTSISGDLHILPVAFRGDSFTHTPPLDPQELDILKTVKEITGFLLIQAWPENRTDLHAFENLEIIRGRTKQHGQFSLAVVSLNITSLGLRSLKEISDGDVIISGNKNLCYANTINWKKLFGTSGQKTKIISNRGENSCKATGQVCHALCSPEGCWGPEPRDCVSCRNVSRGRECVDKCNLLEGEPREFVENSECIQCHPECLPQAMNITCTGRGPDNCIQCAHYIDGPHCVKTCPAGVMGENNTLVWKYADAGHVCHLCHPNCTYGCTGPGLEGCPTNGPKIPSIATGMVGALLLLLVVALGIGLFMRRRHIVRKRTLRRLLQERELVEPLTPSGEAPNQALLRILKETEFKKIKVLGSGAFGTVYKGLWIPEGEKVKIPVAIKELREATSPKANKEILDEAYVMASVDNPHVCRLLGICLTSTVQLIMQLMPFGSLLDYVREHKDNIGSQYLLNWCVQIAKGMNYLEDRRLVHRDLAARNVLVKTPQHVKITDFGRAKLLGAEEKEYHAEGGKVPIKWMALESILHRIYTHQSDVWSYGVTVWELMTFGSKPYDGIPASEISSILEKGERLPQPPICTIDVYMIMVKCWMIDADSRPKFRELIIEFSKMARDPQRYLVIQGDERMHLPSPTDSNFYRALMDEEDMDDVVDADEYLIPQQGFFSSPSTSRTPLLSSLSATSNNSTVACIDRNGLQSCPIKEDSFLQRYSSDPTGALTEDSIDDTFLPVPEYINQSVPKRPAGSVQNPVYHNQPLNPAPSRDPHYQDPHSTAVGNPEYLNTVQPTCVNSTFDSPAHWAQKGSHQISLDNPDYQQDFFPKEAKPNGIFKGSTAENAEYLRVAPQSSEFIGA
run-description: HTRF inhibitory activity assay against EGFR (L858R/T790M/C797S) enzyme
Format: biochemical
condition-label: read-out: EGFR (L858R/T790M/C797S) inhibition (%) (0.3 nM compound)
measured-quantity: inhibition at 0.0003 µM

[
  {
    "molecule": "CN1CCC(Oc2nc(Nc3ccc(N4CCC(N5CCN(C)CC5)CC4)cc3)c(C(N)=O)nc2-c2ccccc2)CC1",
    "measured-quantity": "inhibition at 0.0003 µM",
    "readout-value": "≤ 20%"
  },
  {
    "molecule": "CN1CCN(C2CCN(c3ccc(Nc4nc(NC5CCC5)c(-c5cccc6[nH]ccc56)nc4C(N)=O)cc3F)CC2)CC1",
    "measured-quantity": "inhibition at 0.0003 µM",
    "readout-value": "> 50%"
  },
  {
    "molecule": "CCc1nc(C(N)=O)c(Nc2ccc(N3CCC(N4CCN(C)CC4)CC3)c(OC)c2)nc1NC1CCOCC1 [Gilteritinib, gilteritinib, reference compound]",
    "measured-quantity": "inhibition at 0.0003 µM",
    "readout-value": "≤ 20%"
  },
  {
    "molecule": "CO[C@H]1C[C@H](Nc2nc(Nc3ccc(N4CCC(N5CCN(C)CC5)CC4)cc3)c(C(N)=O)nc2-c2ccccc2)C1",
    "measured-quantity": "inhibition at 0.0003 µM",
    "readout-value": "20 to 50%"
  },
  {
    "molecule": "CN1CCN(C2CCN(c3ccc(Nc4nc(NC5CCOCC5)c(-c5cccc(F)c5)nc4C(N)=O)cc3)CC2)CC1",
    "measured-quantity": "inhibition at 0.0003 µM",
    "readout-value": "≤ 20%"
  },
  {
    "molecule": "CN1CCN(C2CCN(c3ccc(Nc4nc(NC5CCC5)c(-c5cccc6[nH]ccc56)nc4C(N)=O)cc3)CC2)CC1",
    "measured-quantity": "inhibition at 0.0003 µM",
    "readout-value": "> 50%"
  }
]

----------
measured-on: EGFR (L858R/T790M/C797S) (Homo sapiens, UniProt P00533, C797S/L858R/T790M)
run-description: HTRF inhibitory activity assay against EGFR (L858R/T790M/C797S) enzyme
Assay type: biochemical
condition-label: read-out: EGFR (L858R/T790M/C797S) inhibition (%) (0.3 nM compound)
Protocol: Inhibitory Activity Assay of the Compounds Disclosed Herein Against EGFR (del19/T790M/C797S), EGFR (L858R/T790M/C797S) or EGFR (WT) Enzymes The inhibitory effects of the compounds against EGFR (del19/T790M/C797S), EGFR (L858R/T790M/C797S) or EGFR (WT) enzyme activity was determined by using HTRF. The procedures are as follows: […]
Entries and their measured inhibition at 0.0003 µM follow.
measured-quantity: inhibition at 0.0003 µM

[
  {
    "smiles-record": "CN1CCN(C2CCN(c3ccc(Nc4nc(NC5CC6(COC6)C5)c(-c5cccc6[nH]ccc56)nc4C(N)=O)cc3)CC2)CC1",
    "measured-on": "EGFR (L858R/T790M/C797S) (Homo sapiens, UniProt P00533, C797S/L858R/T790M)",
    "readout-value": "> 50%"
  },
  {
    "smiles-record": "COc1ccncc1-c1nc(C(N)=O)c(Nc2ccc(N3CCC(N4CCN(C)CC4)CC3)cc2)nc1NC1CCOCC1",
    "measured-on": "EGFR (L858R/T790M/C797S) (Homo sapiens, UniProt P00533, C797S/L858R/T790M)",
    "readout-value": "20 to 50%"
  },
  {
    "smiles-record": "CN1CCN(C2CCN(c3ccc(Nc4nc(N[C@@H]5CC[C@@H](O)C5)c(-c5ccccc5)nc4C(N)=O)cc3)CC2)CC1",
    "measured-on": "EGFR (L858R/T790M/C797S) (Homo sapiens, UniProt P00533, C797S/L858R/T790M)",
    "readout-value": "20 to 50%"
  },
  {
    "smiles-record": "CN1CCN(C2CCN(c3ccc(Nc4nc(N[C@H]5CC[C@H](O)CC5)c(-c5ccccc5)nc4C(N)=O)cc3)CC2)CC1",
    "measured-on": "EGFR (L858R/T790M/C797S) (Homo sapiens, UniProt P00533, C797S/L858R/T790M)",
    "readout-value": "≤ 20%"
  },
  {
    "smiles-record": "CN1CCN(C2CCN(c3ccc(Nc4nc(NC5CCOCC5)c(-c5ccncc5)nc4C(N)=O)cc3)CC2)CC1",
    "measured-on": "EGFR (L858R/T790M/C797S) (Homo sapiens, UniProt P00533, C797S/L858R/T790M)",
    "readout-value": "> 50%"
  },
  {
    "smiles-record": "CN1CCN(C2CCN(c3ccc(Nc4nc(N[C@H]5CC[C@H](O)CC5)c(-c5cccc6[nH]ccc56)nc4C(N)=O)cc3F)CC2)CC1",
    "measured-on": "EGFR (L858R/T790M/C797S) (Homo sapiens, UniProt P00533, C797S/L858R/T790M)",
    "readout-value": "> 50%"
  },
  {
    "smiles-record": "Cc1cc(Nc2nc(NC3CCOCC3)c(-c3ccncc3)nc2C(N)=O)ccc1N1CCC(N2CCN(C)CC2)CC1",
    "measured-on": "EGFR (L858R/T790M/C797S) (Homo sapiens, UniProt P00533, C797S/L858R/T790M)",
    "readout-value": "> 50%"
  },
  {
    "smiles-record": "CN1CCN(C2CCN(c3ccc(Nc4nc(Nc5ccccc5)c(-c5ccccc5)nc4C(N)=O)cc3)CC2)CC1",
    "measured-on": "EGFR (L858R/T790M/C797S) (Homo sapiens, UniProt P00533, C797S/L858R/T790M)",
    "readout-value": "≤ 20%"
  },
  {
    "smiles-record": "CN1CCN(C2CCN(c3ccc(Nc4nc(NC5CCOCC5)c(-c5ccccn5)nc4C(N)=O)cc3)CC2)CC1",
    "measured-on": "EGFR (L858R/T790M/C797S) (Homo sapiens, UniProt P00533, C797S/L858R/T790M)",
    "readout-value": "20 to 50%"
  },
  {
    "smiles-record": "CN1CCN(C2CCN(c3ccc(Nc4nc(NC5CS(=O)(=O)C5)c(-c5ccccc5)nc4C(N)=O)cc3)CC2)CC1",
    "measured-on": "EGFR (L858R/T790M/C797S) (Homo sapiens, UniProt P00533, C797S/L858R/T790M)",
    "readout-value": "≤ 20%"
  },
  {
    "smiles-record": "CC(C)Nc1nc(Nc2ccc(N3CCC(N4CCN(C)CC4)CC3)cc2)c(C(N)=O)nc1-c1cccc2[nH]ccc12",
    "measured-on": "EGFR (L858R/T790M/C797S) (Homo sapiens, UniProt P00533, C797S/L858R/T790M)",
    "readout-value": "> 50%"
  },
  {
    "smiles-record": "CN1CCN(C2CCN(c3ccc(Nc4nc(NC5CC5)c(-c5cccc6[nH]ccc56)nc4C(N)=O)cc3)CC2)CC1",
    "measured-on": "EGFR (L858R/T790M/C797S) (Homo sapiens, UniProt P00533, C797S/L858R/T790M)",
    "readout-value": "> 50%"
  },
  {
    "smiles-record": "CN1CCN(C2CCN(c3ccc(Nc4nc(NC5CCOCC5)c(-c5cccs5)nc4C(N)=O)cc3)CC2)CC1",
    "measured-on": "EGFR (L858R/T790M/C797S) (Homo sapiens, UniProt P00533, C797S/L858R/T790M)",
    "readout-value": "≤ 20%"
  },
  {
    "smiles-record": "CN1CCN(C2CCN(c3ccc(Nc4nc(NC5CCOCC5)c(-c5ccccc5)nc4C(N)=O)cc3)CC2)CC1",
    "measured-on": "EGFR (L858R/T790M/C797S) (Homo sapiens, UniProt P00533, C797S/L858R/T790M)",
    "readout-value": "≤ 20%"
  }
]
